measurement-name: melting point

• COc1ccc(C(=O)Nc2ccc3c(c2)CCC3=O)cc1 = 237 to 238 °C

Q: Return melting point (reported value) for this molecule: CC(C)(Cc1c[nH]c2ccc(Br)cc12)[N+](=O)[O-]
A: 106 to 109 °C

Q: Return melting point (reported value) for this molecule: CNC(=O)c1ccc(CN2CCN(c3nc(C)c(C(C)=O)s3)C2=O)cc1
A: 173 to 175 °C

Q: Return melting point (reported value) for this molecule: CCN(C1CCN(C)CC1)S(=O)(=O)c1ccc(Nc2nccc(Nc3ccc(F)cc3)n2)cc1
A: 154 °C

Q: Return melting point (reported value) for this molecule: CCCC1=C(C(=O)OCC)C(c2c(F)cccc2F)c2c[nH]nc2N1 (configuration not stated)
A: 185 °C

Q: Return melting point (reported value) for this molecule: CCN(CC)c1cc2c(cc1C)Nc1c(cc(NC(=O)c3ccc(OC)cc3)c3ncn(-c4ccc(OC)cc4)c13)O2
A: 189 to 192 °C

Q: Return melting point (reported value) for this molecule: CCCOc1ccc(C)cc1C(=N)OCC
A: 148 to 150 °C

Q: Return melting point (reported value) for this molecule: O=C1c2ccccc2C(=O)N1CC#Cc1ccc(Cl)cc1C(O)c1ccccc1F (configuration not stated)
A: 158 to 160 °C

Q: Return melting point (reported value) for this molecule: COC(=O)c1ccc(C(=O)CC(=O)OCc2ccccc2)cc1
A: 71 °C

Q: Return melting point (reported value) for this molecule: O=S1(=O)c2ccccc2-c2[nH]nc(-c3ccccc3)c21
A: 266 to 268 °C

Q: Return melting point (reported value) for this molecule: CCc1ccc(Nc2c(-c3nnc(NCCO)o3)ccc(F)c2F)c(F)c1
A: 100 to 103 °C
